For each entry below, report its inhibition value.
# Tested System: 6-phosphogluconate dehydrogenase, decarboxylating (Homo sapiens) (UniProt P52209)
# Sequence (P52209 whole entry, looked up): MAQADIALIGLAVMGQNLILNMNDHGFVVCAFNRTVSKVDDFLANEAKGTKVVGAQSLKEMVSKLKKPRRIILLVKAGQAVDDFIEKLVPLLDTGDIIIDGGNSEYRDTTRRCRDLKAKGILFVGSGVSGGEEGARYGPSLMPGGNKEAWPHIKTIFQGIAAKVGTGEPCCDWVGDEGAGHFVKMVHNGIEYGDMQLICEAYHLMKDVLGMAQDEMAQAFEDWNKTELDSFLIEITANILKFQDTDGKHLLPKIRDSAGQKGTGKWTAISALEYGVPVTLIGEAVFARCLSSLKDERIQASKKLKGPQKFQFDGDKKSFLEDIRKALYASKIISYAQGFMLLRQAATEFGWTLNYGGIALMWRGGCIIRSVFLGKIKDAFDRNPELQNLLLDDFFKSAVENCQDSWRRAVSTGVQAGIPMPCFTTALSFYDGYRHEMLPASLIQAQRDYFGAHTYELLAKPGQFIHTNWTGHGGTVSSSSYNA
# Assay Text: 6PGD enzyme inhibitors, primary screen, biochemical, human, recombinant enzyme, NADPH absorbance (AID 1159550)
# Recorded Conditions: recombinant 6PGD, NADPH absorbance 341 nm; at 10 µM; active compounds read high
// note: answer is a bare numeric in %

# input Hello, I am looking for reported inhibition with 6-phosphogluconate dehydrogenase, decarboxylating (Homo sapiens) (UniProt P52209) for CC(C)NCC(O)COc1cccc2ccccc12 (stereo not drawn) . Could you help?
# output 13.6

# input Could you do the same for `COc1cc(O)c2c(=O)c(-c3ccccc3)coc2c1` , please?
# output -1.53

# input Next entry: CN(C)CCC(c1ccc(Br)cc1)c1ccccn1 (stereo not drawn)
# output 5

---

# Assay Text: sensitizers of A549 cells to miR-34 induction, primary screen, imaging, A549 dox-inducible miR-34, nuclei and caspase counts (AID 1347080)
# Recorded Conditions: A549 miR-34 inducible, Hoechst nuclei count, 48 h; active compounds read low; cell number ratio, induced over uninduced
Quantity Measured: fold change
Just the number.

# input Param item = O=C(NCC1CN(c2ccc(N3CCOCC3=O)cc2)C(=O)O1)c1ccc(Cl)s1 (stereo unspecified) ; retrieve measured fold change.
# output 0.99

# input Likewise for `COc1cc(C(=O)NCCCCCC(=O)O)cc(OC)c1OC` ?
# output 0.815

# input What do you get for `O=c1c2ccccc2oc2ccccc12` ?
# output 0.991

# input Ok, now CCC1NC(=O)c2cc(S(N)(=O)=O)c(Cl)cc2N1 (stereo unspecified)
# output 0.92

# input Field entry: `NCCNCCNCCN`
# output 0.908

# input What do we get for `O=C(O[C@@H]1Cc2c(O)cc(O)cc2O[C@@H]1c1cc(O)c(O)c(O)c1)c1cc(O)c(O)c(O)c1` ?
# output 0.998

# input Next compound: `O=S(=O)(O)c1cc(I)c(O)c2ncccc12`
# output 1.07

# input Same again, this time with `CC1(C)Oc2ccc(C#N)cc2[C@@H](N2CCCC2=O)[C@@H]1O`
# output 0.905

# input What would you report for CC(C(=O)O)c1ccc2c(c1)CC(=O)c1ccccc1S2 (stereo unspecified) ?
# output 0.901

# input Next entry: `C/C(=C(\CCOP(=O)(O)O)SC(=O)c1ccccc1)N(C=O)Cc1cnc(C)nc1N`
# output 0.873

# input Further, for `CCc1cccc(N(C)C(N)=Nc2cccc3ccccc23)c1` ?
# output 1.03

# input Now this one: `Cc1c(-c2ccc(O)cc2)n(Cc2ccc(OCCN3CCCCCC3)cc2)c2ccc(O)cc12`
# output 0.919

# input Again, but for COc1cc(C2c3cc4c(cc3C(OC3OC5COC(C)OC5C(O)C3O)C3COC(=O)C23)OCO4)cc(OC)c1O (stereo unspecified)
# output 0.803

# input Further, for `NCCCCCCNS(=O)(=O)c1cccc2c(Cl)cccc12` ?
# output 0.955

# input Now the same for `COc1cc2cc3c4cc(OC)c(OC)cc4cc[n+]3c(C)c2cc1OC`
# output 0.879

# input Entry `O=C(O)[C@H](O)c1ccccc1` please
# output 0.975

# input Same for COc1ccc(-c2nc3ccc(C4=NNC(=O)CC4C)cc3[nH]2)cc1 (stereo unspecified)
# output 0.906

# input Repeat for the following compound: `CCNC(=O)N1CCN(CCCC(c2ccc(F)cc2)c2ccc(F)cc2)CC1`
# output 0.987

# input Now this one: `C=C1CC[C@H](O)C/C1=C/C=C1\CCC[C@]2(C)[C@@H]([C@H](C)/C=C/[C@H](C)C(C)C)CC[C@@H]12`
# output 0.934

# input Param item: CC1CCCC(C)N1NC(=O)c1ccc(Cl)c(S(N)(=O)=O)c1 (stereo unspecified)
# output 0.9

# input Next: NC(=O)OCC(O)COc1ccc(Cl)cc1 (stereo unspecified)
# output 0.864

# input How about `COc1cc(/C=C/C(N)=O)cc(OC)c1OC` ?
# output 0.933

# input What about CCCCC(CC)COC(=O)CC(C(=O)OCC(CC)CCCC)S(=O)(=O)O (stereo unspecified) ?
# output 0.854

# input Then this compound: `CCCCC(=O)Oc1ccccc1C(=O)O`
# output 0.935

# input Then this compound: CO[C@H]1/C=C/O[C@@]2(C)Oc3c(C)c(O)c4c(O)c(c5c(nc6cc(C)ccn65)c4c3C2=O)NC(=O)/C(C)=C\C=C\[C@H](C)[C@H](O)[C@@H](C)C(O)[C@@H](C)[C@H](OC(C)=O)[C@@H]1C (stereo partly specified)
# output 0.902

# input Another compound: `CCN(CC)CCCN(c1ccccc1)C1Cc2ccccc2C1`
# output 1.07

Hello, the source for this data is PubChem BioAssay, in case you need it.
